target_desc: Pim-2 (Homo sapiens (Human), UniProt Q9P1W9)
Sequence (Q9P1W9 whole entry): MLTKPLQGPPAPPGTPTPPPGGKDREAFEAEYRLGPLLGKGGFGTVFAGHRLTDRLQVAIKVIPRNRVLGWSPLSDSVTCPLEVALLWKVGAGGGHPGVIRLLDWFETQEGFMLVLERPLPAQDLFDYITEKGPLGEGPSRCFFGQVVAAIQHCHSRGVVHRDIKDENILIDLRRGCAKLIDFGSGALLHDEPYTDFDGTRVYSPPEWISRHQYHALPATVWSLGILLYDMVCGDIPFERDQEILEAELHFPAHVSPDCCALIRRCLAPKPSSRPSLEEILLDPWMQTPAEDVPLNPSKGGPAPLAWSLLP
measurement_notes: Pim-2 kinase assay
Type: biochemical
recorded_conditions: Km ATP concentration rather than 1 mM; read-out: Pim2 IC50 at Km ATP concentration
pIC50: −log10 of the molar value.

compound: N[C@H]1CCCN(c2c(NC(=O)c3csc(-c4c(F)cccc4F)n3)cnc3ccccc23)C1 [Example 2]
pIC50: 6.00 to 7.00
